B1: KRT18 (parent)
chain: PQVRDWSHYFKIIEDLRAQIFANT

Variants of: B1
protocol details: protein stability index of a GFP-peptide fusion (GPS, HEK-293T) (PSI 1-6); higher = more stable;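 further: lentivirally expressed fusions sorted by FACS into six bins by GFP to DsRed ratio, PSI derived from sequencing read proportions per bin multiplied by bin number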
condition notes: c terminus: a fixed tail appended
readout label: protein stability index

* Y9T | 1.81
* E14T | 2
* I12E | 2.45
* A22R | 1.99
* K11G | 1.74
* T24F | 2.34
* I12C | 2.38
* D15I | 1.74
* Y9D | 2.95
* D15M | 2.87
* D15G | 2.16
